A collection of molecules and their measured Solubility ratio
Conditions: human, 20000 µM
Description: Solubility ratio ([HbS+drug (20 mM)]/[HbS-drug]

substance smiles: COc1cc(OCC(=O)O)cc(OC)c1OC
Solubility ratio: 1.015
//
substance smiles: Cc1ccc(OCC(=O)O)c(Br)c1
Solubility ratio: 1.102
//
substance smiles: O=C(O)COCc1ccc(Cl)cc1Cl
Solubility ratio: 1.295
//
substance smiles: O=C(O)CSc1ccc(Cl)cc1
Solubility ratio: 1.168

###

The following compounds are listed with their measured Solubility ratio values.
Conditions: human, 40000 µM
Description: Solubility ratio ([HbS+drug (40 mM)]/[HbS-drug])
metric name: Solubility ratio

substance smiles: Cc1ccc(C)c(OCC(=O)O)c1
assay value: 1.248

substance smiles: Cc1ccc(OCC(=O)O)cc1C
assay value: 1.243

substance smiles: Nc1ccc(CSCC(=O)O)cc1
assay value: 1.174

substance smiles: CC(C)(Oc1ccc(Cl)cc1)C(=O)O
assay value: 1.302
